Consider the following IC50 data for MERTK (Homo sapiens, UniProt Q12866), collected from several reports.

Provide reported IC50 for each item, in the same order as listed.
1. Cn1cc(-c2cnc(N)c(C(=O)N[C@@H]3CCN(C(=O)c4cccc(-c5cccc(C(=O)O)c5)c4)C3)c2)cn1
2. COCCOc1nc(Nc2ccc(CN3CCN(C)CC3)cc2)nc2[nH]cc(-c3ccc(S(=O)(=O)N4CCOCC4)cc3)c12
3. COCC(C)Nc1ncc2c(-c3cnn(CC4CCCO4)c3)cc(C3CCC(O)CC3)n2n1 (stereo not drawn)
4. Cn1cc(-c2cnc(N)c(C(=O)N[C@@H]3CCN(C(=O)c4ccc(-c5ccc(CC#N)cc5)cc4)C3)c2)cn1
5. COc1cc2nccc(Oc3ccc(NC(=O)c4cccn(-c5ccc(F)cc5)c4=O)cc3F)c2c2c1OCCO2
6. Cc1ccc(Cl)cc1Nc1ncc2c(OC3CCNCC3)ncc([C@H]3CC[C@H](O)CC3)c2n1

Given back:
1: > 1000 nM; 2: > 1000 nM; 3: ≤ 100 nM; 4: 100 to 1000 nM; 5: ≤ 50 nM; 6: 100 to 1000 nM

Provide reported IC50 for each item, in the same order as listed.
1. CN(C)S(=O)(=O)c1cccc(-c2cnc(OC3CCOCC3)c3cnc(NC4(C)CC4)nc23)c1
2. CC(=O)N1CCN(CCCOc2cc3nccc(Oc4ccc(NC(=O)c5cn(C(C)C)c(=O)n(-c6ccc(F)cc6)c5=O)cc4F)c3c3c2OCCO3)CC1
3. COC(=O)c1ccccc1OC(=O)N1CC[C@@H](NC(=O)c2cc(-c3cnn(C)c3)cnc2N)C1
4. COC[C@H](C)Nc1ncc2c(-c3ccnc([S@@](C)(=N)=O)c3)cc([C@H]3CC[C@H](O)CC3)n2n1
5. CC(C)C(C)Nc1ncc2c(OC3CCNCC3)ncc([C@H]3CC[C@H](O)CC3)c2n1 (stereo partly drawn)

Given back:
1. ≤ 100 nM
2. ≤ 50 nM
3. > 1000 nM
4. ≤ 100 nM
5. ≤ 100 nM

Provide reported IC50 for each item, in the same order as listed.
1. Cn1cc(-c2cnc(N)c(C(=O)N[C@@H]3CCN(C(=O)/C=C/c4ccc(Br)cc4)C3)c2)cn1
2. CC1(N2CCc3ccc(-c4cnc5[nH]nc(-c6ccc(S(=O)(=O)C7CC7)cc6)c5c4)cc3CC2)CCCC1
3. CC(=O)N1CCC(n2cc(-c3cnc(N)c(-c4nnc(-c5c(Cl)cccc5Cl)o4)c3)cn2)CC1
4. COc1cc2nccc(Oc3ccc(NC(=O)c4c(C)ncc(-c5ccccn5)c4O)cc3F)c2nc1OC

Given back:
1: 100 to 1000 nM; 2: > 1000 nM; 3: < 500 nM; 4: ≤ 100 nM
